Entry source: ChEMBL document CHEMBL5291721

# TESTED_ON: Alpha-1A adrenergic receptor (Homo sapiens, UniProt P35348)
# Sequence (P35348 whole entry): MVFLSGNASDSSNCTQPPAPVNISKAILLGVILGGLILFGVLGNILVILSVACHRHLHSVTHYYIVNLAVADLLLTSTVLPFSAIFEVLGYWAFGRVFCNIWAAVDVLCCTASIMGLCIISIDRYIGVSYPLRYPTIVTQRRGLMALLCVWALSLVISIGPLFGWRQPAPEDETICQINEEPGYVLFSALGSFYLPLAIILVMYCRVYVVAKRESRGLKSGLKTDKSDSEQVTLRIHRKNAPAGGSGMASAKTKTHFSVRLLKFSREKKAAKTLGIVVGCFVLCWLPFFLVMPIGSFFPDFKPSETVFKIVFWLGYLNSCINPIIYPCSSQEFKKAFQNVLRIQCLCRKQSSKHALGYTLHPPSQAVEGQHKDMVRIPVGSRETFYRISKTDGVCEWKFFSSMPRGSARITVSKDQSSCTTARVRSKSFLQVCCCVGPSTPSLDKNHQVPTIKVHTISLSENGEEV
# Format: functional, cell-based
MEASUREMENT_KIND: AC50

- COMPOUND: "O=C(O)c1ccccc1Nc1cc(Cl)ccc1C(=O)O"
  AC50: "> 30 µM"
- COMPOUND: "CC(C)N(CCC(C(N)=O)(c1ccccc1)c1ccccn1)C(C)C (configuration not stated) [DISOPYRAMIDE]"
  AC50: "> 30 µM"
- COMPOUND: "Oc1ccc2c(c1)[C@@]13CCCC[C@@]1(O)[C@@H](C2)N(CC1CCC1)CC3"
  AC50: "> 30 µM"
- COMPOUND: "CCOC(=O)C1=C[C@]2(CC)CCCN3CCc4c(n1c1ccccc41)[C@@H]32"
  AC50: "> 30 µM"
- COMPOUND: "CCC1(c2ccccc2)CCC(=O)NC1=O (configuration not stated) [GLUTETHIMIDE]"
  AC50: "> 30 µM"
- COMPOUND: "CN(C(=O)c1c(O)c2ccccc2n(C)c1=O)c1ccccc1"
  AC50: "> 30 µM"
- COMPOUND: "CN1CCN(C2=Nc3ccccc3Oc3ccc(Cl)cc32)CC1"
  AC50: "> 30 µM"
- COMPOUND: "CCCCC(=O)O[C@]1(C(=O)CO)[C@@H](C)C[C@H]2[C@@H]3CCC4=CC(=O)C=C[C@]4(C)[C@@]3(F)[C@@H](O)C[C@@]21C [BETAMETHASONE VALERATE]"
  AC50: "> 30 µM"
- COMPOUND: "Nc1ccc(S(=O)(=O)Nc2nccs2)cc1"
  AC50: "> 30 µM"
- COMPOUND: "CN1CCC(=C2c3ccccc3CCc3cccnc32)CC1"
  AC50: "> 30 µM"

// sample C=CC[C@@H]1/C=C(\C)C[C@H](C)C[C@H](OC)[C@H]2O[C@@](O)(C(=O)C(=O)N3CCCC[C@H]3C(=O)O[C@H](/C(C)=C/[C@@H]3CC[C@@H](O)[C@H](OC)C3)[C@H](C)[C@@H](O)CC1=O)[C@H](C)C[C@@H]2OC [TACROLIMUS ANHYDROUS] , its AC50 was > 30 µM

Kindly note the recorded AC50 for CCC(=O)O[C@H]1CC[C@H]2[C@@H]3CCC4=CC(=O)CC[C@]4(C)[C@H]3CC[C@]12C [TESTOSTERONE PROPIONATE] , which is > 30 µM

Data point: CCCCCCCCCCCCCCCCCCCCCC(=O)Nc1ccn([C@@H]2O[C@H](CO)[C@@H](O)[C@@H]2O)c(=O)n1 ; AC50 = > 30 µM

// field: AC50; key: CC(N)C(O)c1ccccc1 (configuration not stated) ; value = > 30 µM

For reference, reported AC50 for O=C(O)CCNC(=O)c1ccccc1 stands at > 30 µM

Just so you know, measured AC50 for C=C[C@@]1(C)CC(=O)[C@]2(O)[C@@]3(C)[C@@H](O)CCC(C)(C)[C@@H]3[C@H](O)[C@H](OC(C)=O)[C@@]2(C)O1 came out at > 30 µM

Per the record, CC(=O)SC[C@@H](C)C(=O)N1CCC[C@H]1C(=O)N[C@@H](Cc1ccccc1)C(=O)O has AC50 of > 30 µM

---

Below are AC50 values recorded for Equilibrative nucleoside transporter 1 (Homo sapiens).

Below, each entry is followed by its recorded AC50 result.
- MOLECULE: "CCOC(=O)C1=C(C)NC(C)=C(C(=O)OC)C1c1cccc([N+](=O)[O-])c1 (stereo not drawn)"
  AC50: "15.9 µM"
- MOLECULE: "COCC1=C(C(=O)O)N2C(=O)[C@@H](NC(=O)/C(=N\\OC)c3csc(N)n3)[C@H]2SC1"
  AC50: "> 30 µM"
- MOLECULE: "O=C1CN=C(c2ccccn2)c2cc(Br)ccc2N1"
  AC50: "> 10 µM"
- MOLECULE: "CC(=O)[C@]1(O)Cc2c(O)c3c(c(O)c2[C@@H](O[C@H]2C[C@H](N)[C@H](O)[C@H](C)O2)C1)C(=O)c1ccccc1C3=O"
  AC50: "> 30 µM"
- MOLECULE: "C#C[C@]1(OC(C)=O)CC[C@H]2[C@@H]3CCC4=C/C(=N/O)CC[C@@H]4[C@H]3CC[C@@]21CC [NORGESTIMATE]"
  AC50: "> 30 µM"
- MOLECULE: "CC(=O)O[C@H](CC(=O)[O-])C[N+](C)(C)C"
  AC50: "> 30 µM"

Record CCC(C)C1(CC)C(=O)NC(=O)NC1=O (stereo not drawn) / Equilibrative nucleoside transporter 1 (Homo sapiens), AC50 recorded as > 30 µM

Equilibrative nucleoside transporter 1 (Homo sapiens) data for CNCc1ccc(-c2[nH]c3cc(F)cc4c3c2CCNC4=O)cc1 ; its AC50: > 30 µM

---

# TESTED_ON: Voltage-dependent L-type calcium channel subunit alpha-1C (Homo sapiens, UniProt Q13936)
# Sequence (Q13936 whole entry): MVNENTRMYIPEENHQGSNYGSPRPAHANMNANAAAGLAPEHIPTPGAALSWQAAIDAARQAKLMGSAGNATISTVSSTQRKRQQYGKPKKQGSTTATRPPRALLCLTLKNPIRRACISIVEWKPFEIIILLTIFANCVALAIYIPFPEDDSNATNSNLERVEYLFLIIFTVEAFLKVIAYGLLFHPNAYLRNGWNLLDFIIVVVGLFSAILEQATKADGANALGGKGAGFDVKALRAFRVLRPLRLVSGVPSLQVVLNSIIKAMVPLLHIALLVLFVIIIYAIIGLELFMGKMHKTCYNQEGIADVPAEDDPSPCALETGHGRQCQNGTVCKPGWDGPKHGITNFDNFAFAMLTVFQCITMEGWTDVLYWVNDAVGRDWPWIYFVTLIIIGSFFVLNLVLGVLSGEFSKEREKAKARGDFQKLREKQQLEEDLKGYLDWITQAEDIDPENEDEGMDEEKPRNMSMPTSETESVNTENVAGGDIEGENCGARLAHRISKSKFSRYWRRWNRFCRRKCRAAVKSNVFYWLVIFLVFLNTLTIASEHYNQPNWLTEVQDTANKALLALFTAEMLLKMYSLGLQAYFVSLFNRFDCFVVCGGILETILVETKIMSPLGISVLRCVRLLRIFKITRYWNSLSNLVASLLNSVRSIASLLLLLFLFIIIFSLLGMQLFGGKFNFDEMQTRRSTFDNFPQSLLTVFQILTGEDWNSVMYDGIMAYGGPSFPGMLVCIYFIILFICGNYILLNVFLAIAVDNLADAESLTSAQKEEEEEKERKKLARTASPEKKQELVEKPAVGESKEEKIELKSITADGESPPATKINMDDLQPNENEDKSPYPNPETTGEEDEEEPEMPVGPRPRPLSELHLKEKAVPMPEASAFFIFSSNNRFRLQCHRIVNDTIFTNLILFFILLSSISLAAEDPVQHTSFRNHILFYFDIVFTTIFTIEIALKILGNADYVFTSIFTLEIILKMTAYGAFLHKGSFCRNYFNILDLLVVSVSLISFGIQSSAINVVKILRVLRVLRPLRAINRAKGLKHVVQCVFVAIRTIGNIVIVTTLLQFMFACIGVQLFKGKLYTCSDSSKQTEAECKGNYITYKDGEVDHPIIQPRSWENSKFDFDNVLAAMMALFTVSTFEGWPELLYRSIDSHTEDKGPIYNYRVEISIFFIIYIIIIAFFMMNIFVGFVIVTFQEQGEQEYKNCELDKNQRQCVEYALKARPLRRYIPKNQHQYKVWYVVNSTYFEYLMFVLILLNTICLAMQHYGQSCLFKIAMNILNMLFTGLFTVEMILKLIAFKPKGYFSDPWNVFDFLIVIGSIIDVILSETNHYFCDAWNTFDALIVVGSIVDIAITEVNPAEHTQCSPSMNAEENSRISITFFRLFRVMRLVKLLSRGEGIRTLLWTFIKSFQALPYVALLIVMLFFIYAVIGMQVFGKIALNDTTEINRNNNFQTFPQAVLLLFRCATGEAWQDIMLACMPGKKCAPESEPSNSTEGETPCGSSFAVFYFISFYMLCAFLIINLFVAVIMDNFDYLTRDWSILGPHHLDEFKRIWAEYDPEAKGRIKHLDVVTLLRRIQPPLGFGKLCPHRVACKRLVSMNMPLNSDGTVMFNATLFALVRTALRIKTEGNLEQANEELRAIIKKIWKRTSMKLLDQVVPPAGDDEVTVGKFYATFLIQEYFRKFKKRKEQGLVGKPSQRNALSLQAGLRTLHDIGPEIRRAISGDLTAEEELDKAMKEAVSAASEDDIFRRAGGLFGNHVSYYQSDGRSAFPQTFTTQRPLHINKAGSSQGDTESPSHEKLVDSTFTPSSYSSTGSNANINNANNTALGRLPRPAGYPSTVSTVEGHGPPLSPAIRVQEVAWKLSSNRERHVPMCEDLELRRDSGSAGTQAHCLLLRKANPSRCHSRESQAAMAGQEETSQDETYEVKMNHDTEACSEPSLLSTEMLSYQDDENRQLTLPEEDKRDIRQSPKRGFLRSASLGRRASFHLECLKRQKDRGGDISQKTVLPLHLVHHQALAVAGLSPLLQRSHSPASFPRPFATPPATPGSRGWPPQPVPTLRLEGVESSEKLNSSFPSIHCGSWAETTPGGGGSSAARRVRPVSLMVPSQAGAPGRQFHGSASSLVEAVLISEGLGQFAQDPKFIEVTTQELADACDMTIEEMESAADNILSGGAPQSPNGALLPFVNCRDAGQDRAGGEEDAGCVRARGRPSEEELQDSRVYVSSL
# Format: functional, cell-based
Each record here notes measured AC50.

- SMILES_TEXT: "N[C@@H](CC(=O)N1CCn2c(nnc2C(F)(F)F)C1)Cc1cc(F)c(F)cc1F"
  TESTED_ON: "Voltage-dependent L-type calcium channel subunit alpha-1C (Homo sapiens, UniProt Q13936)"
  AC50: "> 50 µM"
- SMILES_TEXT: "CCN(CC)CCNC(=O)c1c(C)[nH]c(/C=C2\\C(=O)Nc3ccc(F)cc32)c1C"
  TESTED_ON: "Voltage-dependent L-type calcium channel subunit alpha-1C (Homo sapiens, UniProt Q13936)"
  AC50: "> 50 µM"

--- query ---
Looking up O=C1CCc2cc(OCCCCc3nnnn3C3CCCCC3)ccc2N1 , I found its AC50 recorded as > 50 µM

---

Measured AC50 by item
# TESTED_ON: Prostaglandin G/H synthase 1 (Homo sapiens, UniProt P23219)
# Sequence (P23219 whole entry): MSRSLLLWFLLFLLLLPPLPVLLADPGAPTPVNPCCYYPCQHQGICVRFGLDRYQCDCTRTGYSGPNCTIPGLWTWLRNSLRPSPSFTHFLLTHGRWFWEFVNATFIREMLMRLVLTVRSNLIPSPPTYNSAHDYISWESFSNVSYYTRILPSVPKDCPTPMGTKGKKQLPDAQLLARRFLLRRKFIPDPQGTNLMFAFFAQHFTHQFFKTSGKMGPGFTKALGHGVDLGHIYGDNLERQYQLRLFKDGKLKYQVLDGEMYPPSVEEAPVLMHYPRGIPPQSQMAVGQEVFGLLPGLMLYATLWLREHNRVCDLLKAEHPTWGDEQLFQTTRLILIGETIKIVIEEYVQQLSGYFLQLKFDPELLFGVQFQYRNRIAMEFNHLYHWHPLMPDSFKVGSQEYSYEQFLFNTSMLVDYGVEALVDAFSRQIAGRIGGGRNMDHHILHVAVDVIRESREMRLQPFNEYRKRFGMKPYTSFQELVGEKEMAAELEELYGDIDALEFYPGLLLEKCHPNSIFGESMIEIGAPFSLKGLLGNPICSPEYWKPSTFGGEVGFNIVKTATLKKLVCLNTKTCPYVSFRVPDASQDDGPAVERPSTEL
# Format: functional

- COMPOUND: "CN(C)CCOC(c1ccccc1)c1ccc(Br)cc1 (configuration not stated) [BROMODIPHENHYDRAMINE]"
  AC50: "> 30 µM"
- COMPOUND: "CC(C)(O)CNc1nc(Nc2ccnc(C(F)(F)F)c2)nc(-c2cccc(C(F)(F)F)n2)n1 [ENASIDENIB]"
  AC50: "9.18 µM"
- COMPOUND: "CN1CCN(C2=Nc3ccccc3Oc3ccc(Cl)cc32)CC1 [LOXAPINE]"
  AC50: "> 30 µM"
- COMPOUND: "COc1cc2nccc(Oc3ccc(NC(=O)C4(C(=O)Nc5ccc(F)cc5)CC4)cc3)c2cc1OC [CABOZANTINIB]"
  AC50: "> 30 µM"
- COMPOUND: "C[C@H]1O[C@@H](n2cc(F)c(=O)[nH]c2=O)[C@H](O)[C@@H]1O [DOXIFLURIDINE]"
  AC50: "> 30 µM"
- COMPOUND: "CC[C@H](C)C[C@H](C)CCCCCCCCC(=O)N[C@H]1C[C@@H](O)[C@@H](NCCN)NC(=O)[C@@H]2[C@@H](O)CCN2C(=O)[C@H]([C@H](O)CCN)NC(=O)[C@H]([C@H](O)[C@@H](O)c2ccc(O)cc2)NC(=O)[C@@H]2C[C@@H](O)CN2C(=O)[C@H]([C@@H](C)O)NC1=O [CASPOFUNGIN]"
  AC50: "3.63 µM"

For record [H]/N=C(\N/C(=N/[H])Nc1ccc(Cl)cc1)NC(C)C [PROGUANIL] the listed AC50 is > 30 µM

---

# TESTED_ON: Thromboxane A2 receptor (Homo sapiens)
# Sequence (P21731 whole entry): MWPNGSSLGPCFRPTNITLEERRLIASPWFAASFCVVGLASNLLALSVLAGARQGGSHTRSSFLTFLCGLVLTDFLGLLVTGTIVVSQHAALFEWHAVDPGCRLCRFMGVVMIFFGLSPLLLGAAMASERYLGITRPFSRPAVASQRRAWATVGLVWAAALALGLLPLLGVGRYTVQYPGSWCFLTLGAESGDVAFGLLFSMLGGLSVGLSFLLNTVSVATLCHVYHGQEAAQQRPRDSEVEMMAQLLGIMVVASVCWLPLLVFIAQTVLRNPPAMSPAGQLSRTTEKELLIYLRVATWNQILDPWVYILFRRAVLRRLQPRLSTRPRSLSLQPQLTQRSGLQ
# Format: functional, cell-based
A collection of compounds and their measured AC50

CC[C@H](c1ccc(O)cc1)[C@@H](CC)c1ccc(O)cc1 [HEXESTROL] yielded AC50 of > 3 µM

---

# TESTED_ON: Alpha-2C adrenergic receptor (Homo sapiens, UniProt P18825)
# Sequence (P18825 whole entry): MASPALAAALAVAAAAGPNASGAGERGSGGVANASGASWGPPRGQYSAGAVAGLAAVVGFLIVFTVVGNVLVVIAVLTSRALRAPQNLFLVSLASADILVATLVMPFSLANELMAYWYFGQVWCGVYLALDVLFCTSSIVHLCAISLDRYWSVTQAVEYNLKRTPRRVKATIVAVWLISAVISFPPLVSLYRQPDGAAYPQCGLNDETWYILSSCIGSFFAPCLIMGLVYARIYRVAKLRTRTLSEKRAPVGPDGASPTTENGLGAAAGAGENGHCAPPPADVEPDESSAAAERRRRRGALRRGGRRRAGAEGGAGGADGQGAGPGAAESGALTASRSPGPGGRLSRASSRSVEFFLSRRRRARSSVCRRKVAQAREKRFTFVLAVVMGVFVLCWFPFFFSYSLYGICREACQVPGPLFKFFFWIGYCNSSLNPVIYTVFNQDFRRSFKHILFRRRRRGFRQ
# Type: functional
Items are presented alongside their recorded AC50.

- COMPOUND: "N[C@@H](CC(=O)N1CCn2c(nnc2C(F)(F)F)C1)Cc1cc(F)c(F)cc1F [SITAGLIPTIN]"
  AC50: "> 30 µM"
- COMPOUND: "O=C1CN=C(c2ccccc2)c2cc([N+](=O)[O-])ccc2N1 [NITRAZEPAM]"
  AC50: "> 10 µM"

Kindly note the recorded AC50 for CC(C)COCC(CN(Cc1ccccc1)c1ccccc1)N1CCCC1 (centres undefined) [BEPRIDIL] , which is 3.3 µM

compound O=[N+]([O-])c1ccc(O)c2ncccc12 [NITROXOLINE] , AC50 observed: 7.1 µM

In plain terms, C[C@]12CCC(=O)C(O)=C1CC[C@@H]1[C@@H]2CC[C@]2(C)C(=O)CC[C@@H]12 [FORMESTANE] has a documented AC50 of > 30 µM

Field AC50 (entry CCCN(CCC)C(=O)Cc1c(-c2ccc(Cl)cc2)nc2ccc(Cl)cn12 [ALPIDEM] ) reads > 30 µM

AC50 for CCOC(=O)O[C@]1(C(=O)OCCl)CC[C@H]2[C@@H]3CCC4=CC(=O)C=C[C@]4(C)[C@H]3[C@@H](O)C[C@@]21C [LOTEPREDNOL ETABONATE] is > 30 µM

Data point: Cc1cccc(N2CC(CO)OC2=O)c1 (centres undefined) [TOLOXATONE] ; AC50 = > 30 µM

# compound CCC(=O)O[C@]1(C(=O)SCF)[C@H](C)C[C@H]2[C@@H]3C[C@H](F)C4=CC(=O)C=C[C@]4(C)[C@@]3(F)[C@@H](O)C[C@@]21C [FLUTICASONE PROPIONATE] ; its AC50 = > 30 µM
